- procedure_text: Inhibitory concentration against interleukin-2 binding
- Set-up: species or system Homo sapiens
In this section, each of the compounds is paired with its reported IC50.
Form entry: value (µM) — number only.

> print(dat)
                            molecule.smiles  unit.spec  reported.value
1  N=C(N)N[C@@H](C(=O)NCC(=O)N1CCC(c2cc(-c3cccc(Cl)c3Cl)n[nH]2)CC1)C1CCCCC1         µM               6

Let us examine a further case.
Request: Quick one: IC50 for CN(CCCNS(=O)(=O)N1CCC(c2cc(-c3cccc(Cl)c3Cl)nn2C)CC1)C(=N)N ?
Response: 14

* * *

In this section, each of the molecules is paired with its reported IC50.
- procedure_text: Inhibitory concentration against interleukin-2 binding
- Parameters: species or system Homo sapiens
Form entry: value (µM) — number only.

Solved cases (4 shown):
> print(dat)
                            molecule.smiles  measurement.type  reported.value
1  CC(C)C[C@@H](NC(=N)N)C(=O)NCC(=O)N1CCC(c2cc(-c3ccc(OCc4ccc(C(=O)O)o4)c(Cl)c3Cl)nn2C)CC1              IC50            0.06
2  CC(=O)N1CCN(C(=O)[C@H](CCNC(=O)N2CCC(c3cc(-c4cccc(Cl)c4Cl)nn3C)CC2)N=C(N)N)CC1              IC50              60
3  CCN(CC1CC1)C(=O)[C@H](CCNC(=O)N1CCC(c2cc(-c3cccc(Cl)c3Cl)nn2C)CC1)N=C(N)N              IC50              60
4  CC(C)N(CCCNS(=O)(=O)N1CCC(c2cc(-c3cccc(Cl)c3Cl)nn2C)CC1)C(=N)N              IC50              48

Request: Quick one: IC50 for COC(=O)[C@H](Cc1ccc(C#Cc2ccccc2)cc1)NC(=O)C[C@H]1CCCN(C(=N)N)C1 ?
Response: 3

* * *

- procedure_text: Inhibitory concentration against interleukin-2 binding
- Design: species or system Homo sapiens
measurement_type: IC50

Solved cases (4 shown):
> print(dat)
                            molecule.smiles  measurement.type  reported.value
1  CNC(=O)[C@H](CCNC(=O)N1CCC(c2cc(-c3cccc(Cl)c3Cl)nn2C)CC1)N=C(N)N              IC50        > 100 µM
2  CN(CCCNC(=O)N1CCC(c2cc(-c3cccc(Cl)c3Cl)nn2C)CC1)C(=N)N              IC50           16 µM
3  CCCN(CCCNC(=O)N1CCC(c2cc(-c3cccc(Cl)c3Cl)nn2C)CC1)C(=N)N              IC50        > 100 µM
4  Cn1nc(-c2cccc(Cl)c2Cl)cc1C1CCN(C(=O)NCCCN=C(N)N)CC1              IC50           29 µM

Request: Quick one: IC50 for COC(=O)[C@H](CCNC(=O)N1CCC(c2cc(-c3cccc(Cl)c3Cl)nn2C)CC1)N=C(N)N ?
Response: > 100 µM

* * *

In this section, each of the compounds is paired with its reported IC50.
- procedure_text: Inhibitory concentration against interleukin-2 binding
- Parameters: species or system Homo sapiens
Form entry: value (µM) — number only.

Solved cases (4 shown):
> print(dat)
                            molecule.smiles  measurement.type  unit.spec  reported.value
1  CC(C)[C@H](CCNC(=O)N1CCC(c2cc(-c3cccc(Cl)c3Cl)nn2C)CC1)N=C(N)N              IC50         µM              55
2  CCCN(CCCNS(=O)(=O)N1CCC(c2cc(-c3cccc(Cl)c3Cl)nn2C)CC1)C(=N)N              IC50         µM              32
3  C[C@H](CCNC(=O)N1CCC(c2cc(-c3cccc(Cl)c3Cl)nn2C)CC1)N=C(N)N              IC50         µM              57
4  C[C@H](CCNS(=O)(=O)N1CCC(c2cc(-c3cccc(Cl)c3Cl)nn2C)CC1)N=C(N)N              IC50         µM              90

Request: Quick one: IC50 for CC(C)C[C@H](CCNC(=O)N1CCC(c2cc(-c3cccc(Cl)c3Cl)nn2C)CC1)N=C(N)N ?
Response: 23

Request: Quick one: IC50 for Cn1nc(-c2cccc(Cl)c2Cl)cc1C1CCN(C(=O)NCC[C@H](N=C(N)N)C(=O)N2CCCC2)CC1 ?
Response: 20

* * *

- procedure_text: Inhibitory concentration against interleukin-2 binding
- Design: species or system Homo sapiens
measurement_type: pIC50
FYI, pIC50 means -log10 of a concentration in mol per litre.

Solved cases (5 shown):
> print(dat)
                            molecule.smiles  measurement.type  reported.value
1  CC(C)[C@H](CCNS(=O)(=O)N1CCC(c2cc(-c3cccc(Cl)c3Cl)nn2C)CC1)N=C(N)N             pIC50            4.12
2  CCN(CC)C(=O)[C@H](CCNC(=O)N1CCC(c2cc(-c3cccc(Cl)c3Cl)nn2C)CC1)N=C(N)N             pIC50            4.96
3  CN(C)C(=O)[C@H](CCNC(=O)N1CCC(c2cc(-c3cccc(Cl)c3Cl)nn2C)CC1)N=C(N)N             pIC50            5.15
4  CC(C)C[C@H](CCNS(=O)(=O)N1CCC(c2cc(-c3cccc(Cl)c3Cl)nn2C)CC1)N=C(N)N             pIC50            4.52
5  CN(CCCNS(=O)(=O)N1CCC(c2cc(-c3ccc(OCc4ccc(C(=O)O)o4)c(Cl)c3Cl)nn2C)CC1)C(=N)N             pIC50            6.22

Let us examine a further case.
Request: Quick one: pIC50 for Cn1nc(-c2cccc(Cl)c2Cl)cc1C1CCN(S(=O)(=O)NCCCN=C(N)N)CC1 ?
Response: 4.64

* * *

- procedure_text: Inhibitory concentration against interleukin-2 binding
- Set-up: species or system Homo sapiens
In this section, each of the molecules is paired with its reported IC50.

> print(dat)
                            molecule.smiles  measurement.type  reported.value
1  Cn1nc(-c2cccc(Cl)c2Cl)cc1C1CCN(S(=O)(=O)NCCN=C(N)N)CC1              IC50        > 100 µM
2  CC(C)[C@@H](CCNS(=O)(=O)N1CCC(c2cc(-c3cccc(Cl)c3Cl)nn2C)CC1)N=C(N)N              IC50        > 100 µM

Let us examine a further case.
Request: Quick one: IC50 for CC(C)N(CCCNC(=O)N1CCC(c2cc(-c3cccc(Cl)c3Cl)nn2C)CC1)C(=N)N ?
Response: > 100 µM

* * *

- procedure_text: Inhibitory concentration against interleukin-2 binding
- Set-up: species or system Homo sapiens
In this section, each of the compounds is paired with its reported IC50.

Solved cases (2 shown):
> print(dat)
                            molecule.smiles  reported.value
1  Cn1nc(-c2cccc(Cl)c2Cl)cc1C1CCN(S(=O)(=O)NCCCCN=C(N)N)CC1        > 100 µM
2  Cn1nc(-c2cccc(Cl)c2Cl)cc1C1CCN(C(=O)NCCN=C(N)N)CC1        > 100 µM

Request: Quick one: IC50 for Cn1nc(-c2cccc(Cl)c2Cl)cc1C1CCN(C(=O)NCC[C@H](N=C(N)N)C(=O)O)CC1 ?
Response: > 100 µM
